targetEntity: human recombinant HDAC1 (Homo sapiens)
Sequence (Q13547 whole entry): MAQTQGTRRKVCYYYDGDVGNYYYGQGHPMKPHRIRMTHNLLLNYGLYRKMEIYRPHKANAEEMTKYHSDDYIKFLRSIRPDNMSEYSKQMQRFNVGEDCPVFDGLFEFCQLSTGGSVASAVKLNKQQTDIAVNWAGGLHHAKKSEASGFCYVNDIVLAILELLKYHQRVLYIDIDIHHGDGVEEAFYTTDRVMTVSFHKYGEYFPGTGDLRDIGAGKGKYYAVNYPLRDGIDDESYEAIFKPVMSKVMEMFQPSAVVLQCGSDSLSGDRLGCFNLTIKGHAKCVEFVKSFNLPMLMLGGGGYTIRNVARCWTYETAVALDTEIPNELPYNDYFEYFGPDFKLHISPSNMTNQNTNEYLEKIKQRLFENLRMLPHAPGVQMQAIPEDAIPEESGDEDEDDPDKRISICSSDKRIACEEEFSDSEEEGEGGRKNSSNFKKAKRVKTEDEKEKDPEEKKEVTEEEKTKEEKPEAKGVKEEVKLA
measurementNotes: HDAC1 enzyme activity inhibition assay (in vitro, fluorimetric)
conditionNotes: human recombinant HDAC1, fluorimetric kit, 30° C. 60 minutes
attributeMeasured: IC50 (µM)
Answers are plain numbers, in µM.

Example compounds with recorded IC50:
C[C@@H]1CN(Cc2ccc(C(=O)NO)cc2)C[C@H](C)N1C(=O)Cc1cccc(F)c1; 1.6
C[C@@H]1CN(Cc2ccc(C(=O)NO)cc2)C[C@H](C)N1C(=O)Cc1cccc(Cl)c1; 1.7

We next turn to a different compound, shown below.
**Q:** Fill blank: measured IC50 of the compound C[C@@H]1CN(S(=O)(=O)c2ccc(CC(=O)NO)cc2)C[C@H](C)N1Cc1ccccc1 is ____.
**A:** 2.25
